tested on: Fusobacterium nucleatum; assay: Inhibition of Fusobacterium nucleatum ATCC 25586 recombinant MGL R373K mutant expressed in Escherichia coli BL21 (DE3) assessed as decrease in signal intensity by measuring recovery ratio by 19F NMR based competition assay relative to wild type; parameters: concentration or dose not given beside the values
Calls of active or inactive are those of the source. No cut-off for these calls is given here.
Endpoint: Activity

Answered examples (5):
> print(dat)
                              input.smiles             assay.target  measured
1         CC(C)(Cc1cccc(C(F)(F)F)c1)C(=O)O  Fusobacterium nucleatum    Active
2                   O=C(O)c1ccc(OC(F)F)nc1  Fusobacterium nucleatum    Active
3  CC(C)(C)OC(=O)N1CCC(CN)(c2ccc(F)cc2)CC1  Fusobacterium nucleatum    Active
4   CC(C)(C)OC(=O)N1CCC(CN)(Cc2ccccc2F)CC1  Fusobacterium nucleatum    Active
5         CC(C)(CC(=O)O)c1ccc(C(F)(F)F)cc1  Fusobacterium nucleatum    Active

INPUT: Give recorded Activity. O=C(O)c1cncc(OCC(F)(F)F)c1
OUTPUT: Active

INPUT: Give recorded Activity. O=C(O)c1cnn(-c2ccc(F)cc2)c1
OUTPUT: Active

INPUT: Give recorded Activity. O=C(O)c1ccnc(OC(F)F)c1
OUTPUT: 50%

INPUT: Give recorded Activity. O=C(O)c1ccnc(OC(F)(F)F)c1
OUTPUT: 50%

INPUT: Give recorded Activity. O=C(O)c1cc(OC(F)(F)F)ccn1
OUTPUT: Active

INPUT: Give recorded Activity. O=C(O)c1cc(C(F)(F)F)nn1Cc1ccccc1
OUTPUT: 50%

INPUT: Give recorded Activity. O=C(O)c1cn(-c2ccc(F)cc2)cn1
OUTPUT: Active

INPUT: Give recorded Activity. O=C(O)c1cnc(OCC(F)(F)F)cn1
OUTPUT: Active

* * *

tested on: Fusobacterium nucleatum; assay: Inhibition of Fusobacterium nucleatum ATCC 25586 recombinant MGL R373K mutant expressed in Escherichia coli BL21 (DE3) assessed as decrease in signal intensity by measuring recovery ratio by 19F NMR based competition assay relative to wild type; parameters: concentration or dose not given beside the values
The source made the active and inactive calls. The calls are words filed in the database; no cut-off is given here.
In this exercise, the only acceptable responses are TRUE for active, FALSE for inactive

> print(dat)
                    input.smiles  group.label
1      O=C(O)c1cn(-c2ccccc2F)cn1         TRUE
2      CC(C)(CC(=O)O)c1ccc(F)cc1        FALSE
3  O=C(O)c1cc(F)c(OCC2CC2)c(F)c1         TRUE

INPUT: Tell me the assay call for CC(C)(C)OC(=O)N1CCC(CN)(c2ccccc2C(F)(F)F)CC1 please.
OUTPUT: TRUE

INPUT: Tell me the assay call for CC(C)(C)OC(=O)N[C@H]1CC[C@H](N2Cc3ccc(F)cc3C2=O)CC1 please.
OUTPUT: TRUE

INPUT: Tell me the assay call for CC(C)(C)OC(=O)N1CCC(CN)(c2cccc(F)c2)CC1 please.
OUTPUT: TRUE

* * *

test system: Fusobacterium nucleatum; assay: Inhibition of Fusobacterium nucleatum ATCC 25586 recombinant MGL K238A mutant expressed in Escherichia coli BL21 (DE3) assessed as decrease in signal intensity by measuring recovery ratio by 19F NMR based competition assay relative to wild type; parameters: concentration or dose not given beside the values
Calls of active or inactive are those of the source. The calls are words filed in the database; no cut-off is given here.
In this exercise, the only acceptable responses are yes (1) = active, no (0) = inactive

A selection of reference data follows.
> print(dat)
                                   molecule  group.label
1  CC(C)(C)OC(=O)N1CCC(CN)(Cc2ccc(C(F)(F)F)cc2)CC1      yes (1)
2  CC(C)(C)OC(=O)N1CCC(CN)(Cc2ccc(F)cc2)CC1       no (0)
3               O=C(O)c1cn(-c2cccc(F)c2)cn1       no (0)

INPUT: Tell me the assay call for CC(C)(C)OC(=O)N1CCC(CN)(Cc2ccccc2F)CC1 please.
OUTPUT: no (0)

INPUT: Tell me the assay call for O=C(O)c1cc(OC(F)(F)F)ccn1 please.
OUTPUT: yes (1)

INPUT: Tell me the assay call for CCOC(=O)c1nc(-c2ccccc2F)no1 please.
OUTPUT: yes (1)
